Ref: PubChem BioAssay (NCI)

experiment: NCI Yeast Anticancer Drug Screen. Data for the mec2-1 strain (AID 157); details: S. cerevisiae mec2-1 strain, at 50.0 µM
The panel holds about 79,000 compounds, 15% with a hit somewhere; the sample as a whole holds those more often. Activity calls are given as the source filed them. Rule as the data show it: active = growth inhibition above about 70%; inactive = the rest.
Your answer must be one of the following: active, inactive

Assay outcome for `Cc1cc(C)c(C#N)c(NN)n1` : what was it?
inactive

Please state the recorded outcome for this compound: `COc1ccccc1NC(=O)C1=C(C)NC(C)=C(C(=O)Nc2ccccc2OC)C1c1ccc(C(C)C)cc1`
inactive

Record request — test call for `CC(C)(C)C(=O)Oc1ccc(/C=C/C(=O)c2ccc(OC(=O)C(C)(C)C)cc2)cc1`
inactive

Please indicate how the test categorized `N#CCCN1CCCC1=O` .
inactive

Outcome? O=C1CCCCC1C(O)(C(F)(F)F)C(F)(F)Cl (configuration not stated)
inactive

Look up the recorded call for `c1cnc2ncncc2n1` in this test.
inactive

Recorded test outcome, item `NNc1c(F)c(F)c2c(F)c(F)c(F)c(F)c2c1F`
active

Hello, I am checking results. What call was entered for `c1ccc(CCCCCCc2ccccc2)cc1` ?
inactive

Could you check what this test reported for `COC(=O)c1cc2ccc(O)c(O)c2cn1` ?
inactive

Could you check what this test reported for `CN/N=C(/Cc1occc(=O)c1O)C(=O)Nc1ccc(C)c(C)c1` ?
inactive

Outcome logged for COC1CCC(/C=C(\C#N)C2CCC(OC)CC2)CC1 (configuration not stated) in this assay:
inactive

Called result for COc1ccc2nc(NC(=O)C(=O)C(C)C(=O)c3ccc(Cl)cc3)sc2c1 (configuration not stated)
inactive
